# EXPERIMENTAL_TARGET: Focal adhesion kinase 1 (Homo sapiens, UniProt Q05397)
# Sequence (Q05397 whole entry, the tested form may be a part): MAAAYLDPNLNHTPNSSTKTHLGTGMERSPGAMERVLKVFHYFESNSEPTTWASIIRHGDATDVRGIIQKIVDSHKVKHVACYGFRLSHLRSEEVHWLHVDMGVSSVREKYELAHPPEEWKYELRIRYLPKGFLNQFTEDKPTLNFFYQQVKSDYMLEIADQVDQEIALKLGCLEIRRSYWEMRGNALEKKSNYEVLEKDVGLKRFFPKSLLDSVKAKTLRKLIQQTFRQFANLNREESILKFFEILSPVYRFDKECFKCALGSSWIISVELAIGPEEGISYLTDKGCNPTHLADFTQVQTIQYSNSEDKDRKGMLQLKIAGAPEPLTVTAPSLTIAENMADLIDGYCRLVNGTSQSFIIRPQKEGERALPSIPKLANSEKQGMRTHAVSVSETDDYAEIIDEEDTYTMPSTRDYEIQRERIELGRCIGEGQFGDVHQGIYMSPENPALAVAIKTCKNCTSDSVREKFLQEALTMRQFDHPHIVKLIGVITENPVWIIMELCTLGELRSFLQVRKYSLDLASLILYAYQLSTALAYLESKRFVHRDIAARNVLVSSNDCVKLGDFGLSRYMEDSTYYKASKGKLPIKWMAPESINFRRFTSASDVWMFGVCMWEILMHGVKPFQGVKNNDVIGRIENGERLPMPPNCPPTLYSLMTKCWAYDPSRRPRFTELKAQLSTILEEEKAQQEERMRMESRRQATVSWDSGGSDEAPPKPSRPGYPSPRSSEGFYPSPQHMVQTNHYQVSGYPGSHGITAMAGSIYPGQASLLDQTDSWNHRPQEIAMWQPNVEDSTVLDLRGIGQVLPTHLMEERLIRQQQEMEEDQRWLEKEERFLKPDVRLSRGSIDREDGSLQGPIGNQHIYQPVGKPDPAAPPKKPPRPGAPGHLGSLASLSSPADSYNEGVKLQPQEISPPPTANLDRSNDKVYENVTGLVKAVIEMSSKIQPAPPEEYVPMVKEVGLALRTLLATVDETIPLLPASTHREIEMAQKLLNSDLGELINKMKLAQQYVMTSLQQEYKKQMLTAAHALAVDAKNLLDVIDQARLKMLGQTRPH
# TEST_PROTOCOL: Inhibition of recombinant human N-terminal GST-fused FAK (2 to 1052 residues) expressed in Sf9 insect cells using Poly(Glu/Tyr)4:1 as substrate measured after 60 mins in presence of [gamma-33P]-ATP by scintillation counting method
pIC50: −log10 of the molar value.
REPORTED_PROPERTY: pIC50

compound_string=CN(CCc1ccc(-c2ccccc2)cc1)Cc1cn(C)c2ccc(C(=O)Nc3ccc(F)cc3)cc12 val="< 4.00"

---

# EXPERIMENTAL_TARGET: Mitogen-activated protein kinase 1 (Homo sapiens)
# Sequence (P28482 whole entry, the tested form may be a part): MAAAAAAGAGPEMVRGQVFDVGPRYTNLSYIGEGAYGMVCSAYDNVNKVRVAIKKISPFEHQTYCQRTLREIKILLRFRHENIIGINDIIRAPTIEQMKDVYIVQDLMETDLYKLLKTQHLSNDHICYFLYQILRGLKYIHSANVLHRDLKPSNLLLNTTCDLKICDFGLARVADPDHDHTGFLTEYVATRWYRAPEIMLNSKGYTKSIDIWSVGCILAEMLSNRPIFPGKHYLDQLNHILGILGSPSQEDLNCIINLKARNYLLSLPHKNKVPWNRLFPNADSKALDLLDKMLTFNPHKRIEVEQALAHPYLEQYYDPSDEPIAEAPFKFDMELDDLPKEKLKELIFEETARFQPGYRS
# TEST_PROTOCOL: Inhibition of recombinant human full-length untagged ERK2 (M1 to S360 residues) expressed in Escherichia coli using recombinant ELK1 as substrate measured after 60 mins in presence of [gamma-33P]-ATP by scintillation counting method
pIC50: −log10 of the molar value.
REPORTED_PROPERTY: pIC50

compound_string=CN(CCc1ccc(-c2ccccc2)cc1)Cc1cn(C)c2ccc(C(=O)Nc3ccc(F)cc3)cc12 val=4.18

---

# EXPERIMENTAL_TARGET: SRSF protein kinase 1 (Homo sapiens, UniProt Q96SB4)
# TEST_PROTOCOL: Inhibition of recombinant human full-length N-terminal GST-His6-fused SRPK1 (M1 to S655 residues) expressed in Sf9 insect cells using RS-peptide as substrate measured after 60 mins in presence of [gamma-33P]-ATP by scintillation counting method
pIC50: −log10 of the molar value.
REPORTED_PROPERTY: pIC50

compound_string=CN(CCc1ccc(-c2ccccc2)cc1)Cc1cn(C)c2ccc(C(=O)Nc3ccc(F)cc3)cc12 val=5.11

---

We begin with a simple list: items and their reported pIC50.
# Tested on: PC-3
# TEST_PROTOCOL: Antiproliferative activity against human PC3 cells assessed as decrease in cell viability measured after 72 hrs by MTT assay
# Type: functional, cell-based
# TEST_CONDITIONS: PC-3, 72 h
pIC50: −log10 of the molar value.
REPORTED_PROPERTY: pIC50

compound=CC(=O)N(CCc1ccc(-c2ccccc2)cc1)Cc1cn(C)c2ccc(C(=O)Nc3ccc(F)cc3)cc12 reported_property=pIC50 result_comparator=< val=4.00
compound="COc1cccc2c1C(=O)c1c(O)c3c(c(O)c1C2=O)C[C@@](O)(C(=O)CO)C[C@@H]3O[C@H]1C[C@H](N)[C@H](O)[C@H](C)O1 [DOXORUBICIN]" reported_property=pIC50 result_comparator== val=5.97
compound=Cc1ccc(NC(=O)c2ccc3c(c2)c(CN(C)CCc2ccc(-c4ccccc4)cc2)cn3C)cc1 reported_property=pIC50 result_comparator== val=4.30
compound=Cn1cc(CN2CCN(Cc3ccc(-c4ccccc4)cc3)CC2)c2cc(C(=O)Nc3ccc(F)cc3)ccc21 reported_property=pIC50 result_comparator== val=4.43

---

# EXPERIMENTAL_TARGET: Wee1-like protein kinase (Homo sapiens)
# Sequence (P30291 whole entry, the tested form may be a part): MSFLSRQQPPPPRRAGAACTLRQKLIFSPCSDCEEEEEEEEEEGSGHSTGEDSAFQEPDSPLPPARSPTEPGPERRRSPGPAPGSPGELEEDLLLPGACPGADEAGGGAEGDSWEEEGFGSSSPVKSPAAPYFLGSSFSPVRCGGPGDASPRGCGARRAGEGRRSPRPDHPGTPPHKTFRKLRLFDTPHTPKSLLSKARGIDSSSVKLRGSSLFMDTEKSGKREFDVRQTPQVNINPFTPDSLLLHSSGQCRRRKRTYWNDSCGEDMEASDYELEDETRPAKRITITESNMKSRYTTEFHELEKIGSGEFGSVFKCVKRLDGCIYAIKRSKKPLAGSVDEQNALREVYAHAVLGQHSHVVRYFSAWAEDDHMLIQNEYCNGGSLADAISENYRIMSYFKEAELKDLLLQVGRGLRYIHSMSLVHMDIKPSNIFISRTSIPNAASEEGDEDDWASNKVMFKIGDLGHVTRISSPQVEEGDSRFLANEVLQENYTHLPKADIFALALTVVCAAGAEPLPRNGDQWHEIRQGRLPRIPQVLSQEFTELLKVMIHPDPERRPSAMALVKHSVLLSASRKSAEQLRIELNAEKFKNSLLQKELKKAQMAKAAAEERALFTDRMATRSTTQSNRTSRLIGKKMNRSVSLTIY
# TEST_PROTOCOL: Inhibition of recombinant human N-terminal GST-His6-fused WEE1 C-terminal domain (Q36 to Y432 residues) expressed in Sf9 cells using Poly(Ala,Glu,Lys,Tyr)6:2:5:1 as substrate measured after 60 mins in presence of [gamma-33P]-ATP by scintillation counting method
pIC50: −log10 of the molar value.
REPORTED_PROPERTY: pIC50

compound_string=CN(CCc1ccc(-c2ccccc2)cc1)Cc1cn(C)c2ccc(C(=O)Nc3ccc(F)cc3)cc12 reported_property=pIC50 val=4.10

---

# EXPERIMENTAL_TARGET: Mitogen-activated protein kinase kinase kinase 9 (Homo sapiens)
# Sequence (P80192 whole entry): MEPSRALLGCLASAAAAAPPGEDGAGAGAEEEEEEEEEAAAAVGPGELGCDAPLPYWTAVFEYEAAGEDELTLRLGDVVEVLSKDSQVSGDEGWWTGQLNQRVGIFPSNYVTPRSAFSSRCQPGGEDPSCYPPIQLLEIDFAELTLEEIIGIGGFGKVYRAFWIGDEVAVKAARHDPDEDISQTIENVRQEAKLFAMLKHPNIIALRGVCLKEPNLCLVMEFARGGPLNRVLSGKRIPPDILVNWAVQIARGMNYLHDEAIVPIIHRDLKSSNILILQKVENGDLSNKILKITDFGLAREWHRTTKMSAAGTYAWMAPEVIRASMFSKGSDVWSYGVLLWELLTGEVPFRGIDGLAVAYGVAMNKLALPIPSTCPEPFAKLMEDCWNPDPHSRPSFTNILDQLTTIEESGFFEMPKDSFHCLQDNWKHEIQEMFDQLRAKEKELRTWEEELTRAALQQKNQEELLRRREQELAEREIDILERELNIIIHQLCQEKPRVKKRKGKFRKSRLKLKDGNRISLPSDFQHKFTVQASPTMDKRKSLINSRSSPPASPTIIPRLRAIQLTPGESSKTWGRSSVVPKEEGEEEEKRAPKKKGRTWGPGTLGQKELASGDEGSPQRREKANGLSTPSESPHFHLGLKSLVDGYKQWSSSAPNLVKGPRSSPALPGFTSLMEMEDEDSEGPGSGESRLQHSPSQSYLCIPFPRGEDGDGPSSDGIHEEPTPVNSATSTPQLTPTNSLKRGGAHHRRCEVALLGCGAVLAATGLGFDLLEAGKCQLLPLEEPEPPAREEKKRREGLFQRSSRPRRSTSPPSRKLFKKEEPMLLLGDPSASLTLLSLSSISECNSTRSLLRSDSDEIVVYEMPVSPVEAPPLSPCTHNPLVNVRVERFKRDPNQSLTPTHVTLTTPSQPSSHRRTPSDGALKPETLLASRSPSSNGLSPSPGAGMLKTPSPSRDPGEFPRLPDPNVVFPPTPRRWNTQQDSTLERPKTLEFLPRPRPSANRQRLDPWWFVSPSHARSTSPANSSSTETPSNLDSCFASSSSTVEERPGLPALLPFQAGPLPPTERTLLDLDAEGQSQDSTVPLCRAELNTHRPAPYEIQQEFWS
# TEST_PROTOCOL: Inhibition of recombinant human MAP3K9 measured after 60 mins in presence of [gamma-33P]-ATP by scintillation counting method
pIC50: −log10 of the molar value.
REPORTED_PROPERTY: pIC50

compound_string=CN(CCc1ccc(-c2ccccc2)cc1)Cc1cn(C)c2ccc(C(=O)Nc3ccc(F)cc3)cc12 experimental_target="Mitogen-activated protein kinase kinase kinase 9 (Homo sapiens)" reported_property=pIC50 val=4.00

---

# EXPERIMENTAL_TARGET: Casein kinase II subunit alpha (Homo sapiens)
# Sequence (P68400 whole entry, the tested form may be a part): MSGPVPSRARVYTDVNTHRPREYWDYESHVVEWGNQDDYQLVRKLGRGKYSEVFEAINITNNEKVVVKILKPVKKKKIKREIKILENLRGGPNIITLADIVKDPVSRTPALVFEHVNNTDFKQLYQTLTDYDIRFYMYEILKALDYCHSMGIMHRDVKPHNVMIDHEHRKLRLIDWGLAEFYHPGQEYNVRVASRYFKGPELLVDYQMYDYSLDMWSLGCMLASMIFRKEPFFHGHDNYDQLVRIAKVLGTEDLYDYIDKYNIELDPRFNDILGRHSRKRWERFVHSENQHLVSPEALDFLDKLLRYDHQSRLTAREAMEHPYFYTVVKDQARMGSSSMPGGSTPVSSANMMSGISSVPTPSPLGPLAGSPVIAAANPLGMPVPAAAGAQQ
# TEST_PROTOCOL: Inhibition of recombinant human full-length N-terminal GST-fused CK2-alpha1 (M1 to Q391 residues) expressed in Sf9 insect cells using casein as substrate measured after 60 mins in presence of [gamma-33P]-ATP by scintillation counting method
pIC50: −log10 of the molar value.
REPORTED_PROPERTY: pIC50

compound_string=CN(CCc1ccc(-c2ccccc2)cc1)Cc1cn(C)c2ccc(C(=O)Nc3ccc(F)cc3)cc12 experimental_target="Casein kinase II subunit alpha (Homo sapiens)" reported_property=pIC50 val="< 4.00"

---

# EXPERIMENTAL_TARGET: Serine/threonine-protein kinase Chk2 (Homo sapiens, UniProt O96017)
# TEST_PROTOCOL: Inhibition of recombinant human CHK2 measured after 60 mins in presence of [gamma-33P]-ATP by scintillation counting method
REPORTED_PROPERTY: IC50 (µM)

compound_string=CN(CCc1ccc(-c2ccccc2)cc1)Cc1cn(C)c2ccc(C(=O)Nc3ccc(F)cc3)cc12 units_symbol=µM val=79

---

# EXPERIMENTAL_TARGET: BDNF/NT-3 growth factors receptor (Homo sapiens)
# Sequence (Q16620 whole entry, the tested form may be a part): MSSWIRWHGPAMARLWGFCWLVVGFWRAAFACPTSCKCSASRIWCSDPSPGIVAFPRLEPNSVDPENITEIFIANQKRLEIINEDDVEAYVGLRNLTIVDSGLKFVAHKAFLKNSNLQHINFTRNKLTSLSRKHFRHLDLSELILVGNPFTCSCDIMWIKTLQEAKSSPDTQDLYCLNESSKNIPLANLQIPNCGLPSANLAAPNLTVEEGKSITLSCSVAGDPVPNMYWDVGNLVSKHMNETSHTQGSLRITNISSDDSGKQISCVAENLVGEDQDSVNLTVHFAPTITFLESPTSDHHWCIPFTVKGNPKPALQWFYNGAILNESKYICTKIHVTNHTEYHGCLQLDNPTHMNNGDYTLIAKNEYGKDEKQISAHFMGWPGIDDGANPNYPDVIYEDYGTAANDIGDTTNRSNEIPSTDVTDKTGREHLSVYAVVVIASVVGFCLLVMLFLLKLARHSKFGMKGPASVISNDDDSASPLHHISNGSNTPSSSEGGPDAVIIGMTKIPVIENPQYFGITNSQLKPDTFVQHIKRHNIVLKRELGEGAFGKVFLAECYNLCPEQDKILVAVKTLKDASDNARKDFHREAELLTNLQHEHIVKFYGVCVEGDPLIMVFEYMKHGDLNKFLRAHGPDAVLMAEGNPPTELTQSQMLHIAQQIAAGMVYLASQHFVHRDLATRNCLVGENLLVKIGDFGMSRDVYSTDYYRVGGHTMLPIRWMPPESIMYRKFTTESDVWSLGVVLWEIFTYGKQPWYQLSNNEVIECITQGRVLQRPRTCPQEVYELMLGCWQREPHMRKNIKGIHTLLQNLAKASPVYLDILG
# TEST_PROTOCOL: Inhibition of recombinant human N-terminal GST-His6-fused TRKB C-terminal domain (V526 to G838 residues) expressed in Sf9 insect cells using Poly(Glu:Tyr)4:1 as substrate measured after 60 mins in presence of [gamma-33P]-ATP by scintillation counting method
pIC50: −log10 of the molar value.
REPORTED_PROPERTY: pIC50

compound_string=CN(CCc1ccc(-c2ccccc2)cc1)Cc1cn(C)c2ccc(C(=O)Nc3ccc(F)cc3)cc12 experimental_target="BDNF/NT-3 growth factors receptor (Homo sapiens)" val=5.20

---

# EXPERIMENTAL_TARGET: Fibroblast growth factor receptor 3 (Homo sapiens)
# TEST_PROTOCOL: Inhibition of recombinant human wild-type N-terminal GST-His6-fused FGFR3 C-terminal domain (R397 to T806 residues) expressed in Sf9 insect cells using TRK-C derived peptide as substrate measured after 60 mins in presence of [gamma-33P]-ATP by scintillation counting method
pIC50: −log10 of the molar value.
REPORTED_PROPERTY: pIC50

compound_string=CN(CCc1ccc(-c2ccccc2)cc1)Cc1cn(C)c2ccc(C(=O)Nc3ccc(F)cc3)cc12 val=5.20

---

# EXPERIMENTAL_TARGET: Mitogen-activated protein kinase kinase kinase 1 (Homo sapiens, UniProt Q13233)
# TEST_PROTOCOL: Inhibition of recombinant human N-terminal 4xFLAG-tagged/C-terminal His8 fused MAP3K1 C-terminal domain (M1193 to W1512 residues) expressed in Sf9 insect cells using Bio-RS-Peptide as substrate measured after 60 mins in presence of [gamma-33P]-ATP by scintillation counting method
pIC50: −log10 of the molar value.
REPORTED_PROPERTY: pIC50

compound_string=CN(CCc1ccc(-c2ccccc2)cc1)Cc1cn(C)c2ccc(C(=O)Nc3ccc(F)cc3)cc12 val=4.18

---

# EXPERIMENTAL_TARGET: Mitogen-activated protein kinase 14 (Homo sapiens, UniProt Q16539)
# Sequence (Q16539 whole entry, the tested form may be a part): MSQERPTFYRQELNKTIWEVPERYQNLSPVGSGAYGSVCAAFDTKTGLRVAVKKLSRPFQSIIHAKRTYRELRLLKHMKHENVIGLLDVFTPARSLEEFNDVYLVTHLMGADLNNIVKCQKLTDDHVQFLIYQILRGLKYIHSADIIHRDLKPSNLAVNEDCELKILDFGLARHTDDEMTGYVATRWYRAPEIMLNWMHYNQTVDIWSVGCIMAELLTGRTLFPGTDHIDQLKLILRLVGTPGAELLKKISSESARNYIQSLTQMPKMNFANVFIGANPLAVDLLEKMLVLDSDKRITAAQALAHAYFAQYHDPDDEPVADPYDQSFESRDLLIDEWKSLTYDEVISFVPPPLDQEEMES
# TEST_PROTOCOL: Inhibition of recombinant human full-length untagged p38-alpha (M1 to S360 residues) expressed in Escherichia coli cells using recombinant ATF2 as substrate measured after 60 mins in presence of [gamma-33P]-ATP by scintillation counting method
REPORTED_PROPERTY: IC50

compound_string=CN(CCc1ccc(-c2ccccc2)cc1)Cc1cn(C)c2ccc(C(=O)Nc3ccc(F)cc3)cc12 val="88 µM"

---

# Test system: MCF7
# TEST_PROTOCOL: Antiproliferative activity against human MCF7 cells assessed as decrease in cell viability measured after 72 hrs by MTT assay
# Format: functional, cell-based
# TEST_CONDITIONS: MCF7, 72 h
Binary call on IC50 with cut-off 10 µM: strictly below means T, and equality or higher means F.

compound_string=CCNC(=O)c1ccc2c(c1)c(CN(C)CCc1ccc(-c3ccccc3)cc1)cn2C experimental_target=MCF7 category_label=F
compound_string=CN(CCc1ccc(-c2ccccc2)cc1)Cc1cn(C)c2ccc(CNc3ccc(F)cc3)cc12 experimental_target=MCF7 category_label=T
compound_string=CN(Cc1ccc(Oc2ccccc2)cc1)Cc1cn(C)c2ccc(CNc3ccc(F)cc3)cc12 experimental_target=MCF7 category_label=F
compound_string=CN(Cc1ccc(-c2ccccc2)cc1)Cc1cn(C)c2ccc(CNc3ccc(F)cc3)cc12 experimental_target=MCF7 category_label=F
compound_string=CN(CCc1ccccc1)Cc1cn(C)c2ccc(C(=O)Nc3ccc(F)cc3)cc12 experimental_target=MCF7 category_label=F
compound_string=CN(CCc1ccc(-c2ccccc2)cc1)Cc1cn(C)c2ccc(C(=O)Nc3ccc(F)cc3)cc12 experimental_target=MCF7 category_label=T
compound_string=CN(CCc1ccc(-c2ccccc2)cc1)Cc1cn(C)c2ccc(C(=O)N3CCCCC3)cc12 experimental_target=MCF7 category_label=T
compound_string=Cn1cc(CN2CCN(Cc3ccc(-c4ccccc4)cc3)CC2)c2cc(C(=O)Nc3ccc(F)cc3)ccc21 experimental_target=MCF7 category_label=F
compound_string=CN(CCc1ccc(Oc2ccccc2)cc1)Cc1cn(C)c2ccc(C(=O)Nc3ccc(F)cc3)cc12 experimental_target=MCF7 category_label=F
